Data origin, for the record: PubChem BioAssay (Tox21)

- Method description: qHTS assay to identify small molecule antagonists of the constitutive androstane receptor (CAR) signaling pathway - cell viability counter screen (AID 1224837); further: nearly all actives have a fitted effect of over 45% in size
- Reported conditions: HepG2-CYP2B6-hCAR viability, CellTiter-Fluor, 23 h, co-treated with 50 nM CITCO; series mostly up to 92.4 µM
Inconclusive results are not listed. The source made the active and inactive calls. The call rests on the fitted dose curve; in most records, active means well fitted cell-killing curve with a large enough effect in the repeat runs; inconclusive means weak or mixed curves, or effect the other way; inactive means flat fitted curve, though single readings scatter.

# Chem smiles, outcome
rows = [
    ("COS(=O)(=O)c1ccc(C)cc1", "inactive"),
    ("Clc1ccc(-c2ccccc2)cc1", "inactive"),
    ("Oc1cccc(-c2ccccc2)c1", "inactive"),
]

---

- Method description: qHTS RealTime-Glo MT Cell Viability Assay in HepG2 cells - 8 hour (AID 1224873); further: nearly all actives have a fitted effect of over 55% in size
- Reported conditions: RealTime-Glo luminescence; series mostly up to 76.8 µM
Records with an inconclusive call do not appear. Calls of active or inactive are those of the source. The call rests on the fitted dose curve; in most records, active means well fitted cell-killing curve with a large enough effect in the repeat runs; inconclusive means weak or mixed curves; inactive means flat fitted curve, though single readings scatter.
Use one of these outcomes when replying: y = active, n = inactive

Solved cases below.
# Molecule, Assigned label
records = [
    ("N#CCCSCCC#N", "n"),
    ("CC(=O)[O-].[Tl+]", "n"),
    ("c1cc[c]([Sb]([c]2ccccc2)[c]2ccccc2)cc1", "n"),
    ("Clc1ccc(Oc2ccccc2)cc1", "n"),
    ("CCOC(=O)OC1=C(c2cc(C)ccc2C)C(=O)NC12CCC(OC)CC2 (stereo not given)", "n"),
    ("c1ccc2cc3c(cc2c1)-c1cccc2cccc-3c12", "n"),
    ("CC(=O)[O-].CC(=O)[O-].O.O.[Cd+2]", "n"),
    ("Clc1ccc(C(c2ccc(Cl)cc2)C(Cl)(Cl)Cl)cc1", "n"),
]

Hello, I am checking results. What call was entered for CCCCCCCCCCCCBr ?
n

Entry COP(=O)(OC)SCn1c(=O)oc2cc(Cl)cnc21 please
n

Entry CC(C)OC(=S)S please
n

Entry CC1(c2ccc(Oc3ccccc3)cc2)OC(=O)N(Nc2ccccc2)C1=O (stereo not given) please
y

Entry O=[N+]([O-])c1c2ccccc2cc2ccccc12 please
n

---

- Method description: qHTS assay to identify small molecule antagonists of the sonic hedgehog signaling (Shh) pathway (AID 1259369); further: nearly all actives have a fitted effect of over 45% in size
- Reported conditions: NIH/3T3 Gli1-Luc reporter, Shh antagonist, luminescence 24 h; series mostly up to 92.4 µM
Inconclusive results are not listed. Activity calls are given as the source filed them. Calls follow the shape of the full dose curve.
Use one of these outcomes when replying: true for active, false for inactive

# Compound, Assigned label
measured = [
    ("ClC1=C(Cl)[C@]2(Cl)[C@@H]3[C@@H]4C[C@@H]([C@H]5O[C@@H]45)[C@@H]3[C@@]1(Cl)C2(Cl)Cl", "true"),
    ("C[CH2][Hg][N]1C(=O)C2C(C1=O)C1(Cl)C(Cl)=C(Cl)C2(Cl)C1(Cl)Cl (stereo not drawn)", "true"),
    ("CCCCCCCCCCCCBr", "false"),
    ("N#CCCSCCC#N", "false"),
    ("O=C(O)C1C2CCC(O2)C1C(=O)O (stereo not drawn)", "true"),
    ("CC(C)OS(C)(=O)=O", "false"),
    ("ClC1=C(Cl)[C@]2(Cl)[C@@H]3[C@@H](Cl)[C@@H](Cl)C[C@@H]3[C@@]1(Cl)C2(Cl)Cl", "false"),
    ("CCN(CC)C(=S)[S-].CCN(CC)C(=S)[S-].[Zn+2]", "true"),
]

Hello, I am checking results. What call was entered for CCc1ccccc1C ?
false

Entry Cl/C=C\CCl please
false

Entry CC1(C)CN=C(NN=C(/C=C/c2ccc(C(F)(F)F)cc2)/C=C/c2ccc(C(F)(F)F)cc2)NC1 please
true

Entry CCCSP(=O)(OCC)SCCC please
false

Entry Oc1ccc(C2(c3ccc(O)cc3)c3ccccc3-c3ccccc32)cc1 please
true

---

- Method description: qHTS assay to identify small molecule antagonists of the retinoid-related orphan receptor gamma (ROR-gamma) signaling pathway - cell viability counter screen (AID 1159520); further: nearly all actives have a fitted effect of over 50% in size; further: potency means the concentration at half of the fitted maximal effect
- Reported conditions: Tet-on RORgamma CHO cells viability, ATP luminescence, 16 h; series mostly up to 92.4 µM
Inconclusive results are not listed. Active and inactive are the calls of the source. Calls come from the whole dose curve; as a rule, active = well fitted cell-killing curve with a large enough effect in the repeat runs; inconclusive = weak or mixed curves, or effect the other way; inactive = no such curve, though single readings can be large or run the other way.

# Chem smiles, Potency
records = [
    ("CC(C)CCCCCCCOP(=O)(Oc1ccccc1)Oc1ccccc1", "inactive"),
    ("CCCN(CCC)c1c([N+](=O)[O-])cc(S(N)(=O)=O)cc1[N+](=O)[O-]", "54.5 µM (active)"),
    ("N#CCCSCCC#N", "inactive"),
    ("Cc1cccc(OP(=O)(Oc2cccc(C)c2)Oc2cccc(C)c2)c1", "inactive"),
]

---

- Method description: qHTS RealTime-Glo MT Cell Viability Assay in HEK293 cells - 24 hour (AID 1224886); further: nearly all actives have a fitted effect of over 50% in size
- Reported conditions: RealTime-Glo luminescence; series mostly up to 76.8 µM
Inconclusive results are not listed. Active and inactive are the calls of the source. The call rests on the fitted dose curve; in most records, active means well fitted cell-killing curve with a large enough effect in the repeat runs; inconclusive means weak or mixed curves, or effect the other way; inactive means flat fitted curve, though single readings scatter.
Use one of these outcomes when replying: active, inactive

# Compound, Assigned label
measured = [
    ("CC(C)[C@H](C(=O)OC(C#N)c1cccc(Oc2ccccc2)c1)c1ccc(OC(F)F)cc1 (stereo partly specified)", "inactive"),
]

Hello, I am checking results. What call was entered for N#CCCC(Br)(C#N)CBr (stereo unspecified) ?
active

Entry Fc1cccc(Cl)c1CCl please
inactive

Entry Cc1cc(C)c(C2=C(OC(=O)CC(C)(C)C)C3(CCCC3)OC2=O)c(C)c1 please
inactive

Entry NC(=O)CCl please
inactive

Entry CCCCCCCCCBr please
inactive

Entry C=CC(=O)N(C)C please
inactive

Entry CN(C)C(=S)[S-].CN(C)C(=S)[S-].[Cu+2] please
active

Entry NNC(=O)c1ccccc1 please
inactive

Entry Oc1c(Cl)c(Cl)cc(Cl)c1Cl please
active

Entry [Hg+2].[I-].[I-] please
active

Entry S=C=Nc1cccc2ccccc12 please
inactive

Entry N#CCc1ccc(Cl)cc1 please
inactive

Entry COc1ccc(N)cc1N please
active

Entry Nc1ccc(Sc2ccc(N)cc2)cc1 please
inactive

Entry O=[N+]([O-])c1ccc(Oc2ccc(C(F)(F)F)cc2[N+](=O)[O-])cc1 please
active

---

- Assayed target: Progesterone receptor (Homo sapiens) (UniProt P06401)
- Sequence (P06401 whole entry, looked up): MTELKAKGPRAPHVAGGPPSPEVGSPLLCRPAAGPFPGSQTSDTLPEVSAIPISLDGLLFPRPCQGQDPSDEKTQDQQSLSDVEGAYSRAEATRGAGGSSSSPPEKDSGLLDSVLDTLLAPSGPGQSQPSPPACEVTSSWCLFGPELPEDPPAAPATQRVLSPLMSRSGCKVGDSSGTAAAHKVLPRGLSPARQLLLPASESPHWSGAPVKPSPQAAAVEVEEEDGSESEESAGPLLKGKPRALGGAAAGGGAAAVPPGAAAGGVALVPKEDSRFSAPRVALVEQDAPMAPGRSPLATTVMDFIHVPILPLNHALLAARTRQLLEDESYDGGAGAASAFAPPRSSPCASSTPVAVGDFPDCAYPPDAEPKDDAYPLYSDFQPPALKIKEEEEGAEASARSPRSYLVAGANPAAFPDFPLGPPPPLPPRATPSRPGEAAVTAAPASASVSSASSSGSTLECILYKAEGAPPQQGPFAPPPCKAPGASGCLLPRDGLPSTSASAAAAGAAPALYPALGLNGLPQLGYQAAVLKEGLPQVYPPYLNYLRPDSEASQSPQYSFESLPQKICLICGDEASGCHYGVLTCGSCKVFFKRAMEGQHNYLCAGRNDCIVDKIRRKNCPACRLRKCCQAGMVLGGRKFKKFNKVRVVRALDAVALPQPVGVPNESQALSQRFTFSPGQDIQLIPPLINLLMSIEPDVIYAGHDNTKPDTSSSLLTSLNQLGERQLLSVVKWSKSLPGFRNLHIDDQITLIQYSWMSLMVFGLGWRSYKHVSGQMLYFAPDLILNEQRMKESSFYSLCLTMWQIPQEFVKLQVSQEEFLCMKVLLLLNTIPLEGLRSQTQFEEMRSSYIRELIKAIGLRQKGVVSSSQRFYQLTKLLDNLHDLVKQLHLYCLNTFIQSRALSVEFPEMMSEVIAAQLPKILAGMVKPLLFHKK
- Method description: qHTS assay to identify small molecule agonists of the progesterone receptor (PR) signaling pathway (AID 1346784); further: nearly all actives have a fitted effect of over 30% in size
- Reported conditions: PR-UAS-bla HEK293T, beta-lactamase FRET ratio, 16 h; series mostly up to 92.4 µM
Records with an inconclusive call do not appear. Activity calls are given as the source filed them. Calls follow the shape of the full dose curve.
Use one of these outcomes when replying: true (active), false (inactive)

Solved cases below.
# Compound, Assigned label
rows = [
    ("c1ccc(Nc2ccc3ccccc3c2)cc1", "false"),
    ("CCCCCCCCCCCCCCC(Br)C(=O)O (stereo not given)", "false"),
    ("N#CCCO", "false"),
    ("CCOP(=S)(OCC)SCS(=O)(=O)C(C)(C)C", "false"),
    ("N#CC(Cl)Cl", "true"),
]

Continue with the next compound.
Hello, I am checking results. What call was entered for Cc1cc(Cl)ccc1O[C@H](C)C(=O)O ?
false

---

- Method description: qHTS assay to identify small molecule agonists of the sonic hedgehog signaling (Shh) pathway - cell viability counter screen (AID 1259366); further: nearly all actives have a fitted effect of over 50% in size
- Reported conditions: NIH/3T3 Gli1-Luc viability, CellTiter-Fluor, 24 h; series mostly up to 92.4 µM
- Excerpt: National Center for Advancing Translational Sciences [NCATS] NIH Chemical Genomics Center [NCGC] U.S. Environmental Protection Agency [EPA] National Institutes of Environmental Health Sciences [NIEHS] National Toxicology Program [NTP] U.S. Food and Drug Administration [FDA] The sonic hedgehog (Shh) pathway is essential for normal embryonic development. Dysregulation of the Shh pathway can cause severe developmental defects in organs. […]
Inconclusive results are not listed. Active and inactive are the calls of the source. Calls follow the shape of the dose curve; as a rule, active = well fitted cell-killing curve with a large enough effect in the repeat runs; inconclusive = weak or mixed curves, or effect the other way; inactive = flat fitted curve, though single readings scatter.
Use one of these outcomes when replying: True = active, False = inactive

Solved cases below.
# Molecule, Assigned label
records = [
    ("CC(=O)O[C@H]1CC[C@@]2(C)C(=CC[C@@H]3[C@@H]2CC[C@]2(C)C(=O)CC[C@@H]32)C1", "False"),
    ("CC(C)CC(C)(c1ccc(O)cc1)c1ccc(O)cc1", "True"),
    ("COP(=O)(CCC(=O)NCO)OC", "False"),
]

Hello, I am checking results. What call was entered for O=S(=O)(c1ccc(Cl)cc1)c1ccc(Cl)cc1 ?
False

Entry CC(C)N1C(=O)N(c2ccccc2)CSC1=NC(C)(C)C please
False

Entry CS(=O)(=O)c1ccc(C(=O)C2C(=O)CCCC2=O)c([N+](=O)[O-])c1 please
False

Entry Oc1ccc(C2(c3ccc(O)cc3)CCCCC2)cc1 please
True

Entry Cc1cc(SCc2sc(-c3ccc(C(F)(F)F)c(F)c3)nc2C)ccc1OCC(=O)O please
True
